Quick list: pIC50 per entry.
- system: PI3Kα H1047R (Homo sapiens, UniProt P42336, H1047R)
- Sequence (P42336 whole entry H1047R): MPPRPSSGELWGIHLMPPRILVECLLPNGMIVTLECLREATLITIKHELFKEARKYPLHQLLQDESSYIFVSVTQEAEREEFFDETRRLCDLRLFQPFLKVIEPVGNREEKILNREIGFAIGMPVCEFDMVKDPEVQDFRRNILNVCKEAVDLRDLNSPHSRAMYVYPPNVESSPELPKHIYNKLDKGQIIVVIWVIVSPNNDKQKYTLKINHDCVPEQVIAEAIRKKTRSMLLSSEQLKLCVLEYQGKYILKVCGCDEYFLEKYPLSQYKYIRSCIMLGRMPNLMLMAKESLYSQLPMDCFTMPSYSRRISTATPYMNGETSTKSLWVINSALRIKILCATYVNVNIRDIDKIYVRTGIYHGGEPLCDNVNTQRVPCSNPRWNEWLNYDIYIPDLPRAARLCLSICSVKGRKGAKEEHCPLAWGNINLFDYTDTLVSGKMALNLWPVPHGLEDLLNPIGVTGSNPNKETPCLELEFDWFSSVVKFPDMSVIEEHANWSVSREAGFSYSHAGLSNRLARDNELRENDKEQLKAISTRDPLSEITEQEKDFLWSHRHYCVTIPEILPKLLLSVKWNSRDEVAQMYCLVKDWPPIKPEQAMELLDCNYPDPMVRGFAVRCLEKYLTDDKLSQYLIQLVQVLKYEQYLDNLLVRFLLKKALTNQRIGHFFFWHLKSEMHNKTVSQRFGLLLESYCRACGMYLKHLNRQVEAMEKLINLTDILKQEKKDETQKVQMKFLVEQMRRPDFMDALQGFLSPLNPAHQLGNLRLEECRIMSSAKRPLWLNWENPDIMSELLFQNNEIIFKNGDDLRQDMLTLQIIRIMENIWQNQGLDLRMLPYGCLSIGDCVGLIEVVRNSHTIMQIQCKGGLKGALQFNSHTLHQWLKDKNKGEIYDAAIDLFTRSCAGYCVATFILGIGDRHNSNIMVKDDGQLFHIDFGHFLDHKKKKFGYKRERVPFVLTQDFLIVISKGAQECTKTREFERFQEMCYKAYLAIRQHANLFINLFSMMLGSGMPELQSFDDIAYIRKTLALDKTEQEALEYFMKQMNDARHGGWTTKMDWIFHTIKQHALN
- Sequence (P27986 2-724 partner): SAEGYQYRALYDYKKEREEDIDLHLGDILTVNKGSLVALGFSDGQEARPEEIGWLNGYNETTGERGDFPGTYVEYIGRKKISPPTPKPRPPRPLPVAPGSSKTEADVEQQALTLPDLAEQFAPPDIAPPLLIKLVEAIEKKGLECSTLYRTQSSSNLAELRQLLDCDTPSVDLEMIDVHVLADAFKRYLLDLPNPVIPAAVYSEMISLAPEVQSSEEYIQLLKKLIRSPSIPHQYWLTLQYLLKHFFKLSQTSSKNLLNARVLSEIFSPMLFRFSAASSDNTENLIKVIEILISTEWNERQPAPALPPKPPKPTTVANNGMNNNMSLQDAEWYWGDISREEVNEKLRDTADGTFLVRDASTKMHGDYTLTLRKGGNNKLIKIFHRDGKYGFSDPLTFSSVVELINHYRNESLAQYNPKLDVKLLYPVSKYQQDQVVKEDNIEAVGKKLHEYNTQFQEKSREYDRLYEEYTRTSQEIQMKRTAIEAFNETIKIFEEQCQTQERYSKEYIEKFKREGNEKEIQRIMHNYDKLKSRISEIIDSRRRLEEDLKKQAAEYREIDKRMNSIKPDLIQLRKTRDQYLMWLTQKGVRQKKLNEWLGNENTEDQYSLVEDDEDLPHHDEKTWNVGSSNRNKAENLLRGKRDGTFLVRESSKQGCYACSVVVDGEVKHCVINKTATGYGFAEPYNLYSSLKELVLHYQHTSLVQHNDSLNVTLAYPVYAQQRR
- assay-overview: PI3Kα H1047R enzyme assay (Transcreener ADP2 TR-FRET Red Assay)
- Format: biochemical
- condition-description: purified recombinant full-length protein; 2 hours pre-incubation with compound
pIC50: −log10 of the molar value.

Task: Please tell me: pIC50 of C[C@@H](Nc1ccc(Cl)nc1C(=O)NS(C)(=O)=O)c1cc(F)cc2c(=O)n(C)c(N3CCc4c(cnn4C)C3)nc12 [Compound 30] , system PI3Kα H1047R (Homo sapiens, UniProt P42336, H1047R)?
Output: 6.60 to 7.00

Task: Please tell me: pIC50 of Cc1cc([C@@H](C)Nc2ccc(Cl)nc2C(=O)NS(C)(=O)=O)c2nc(NCC3(C(F)(F)F)CC3)n(C)c(=O)c2c1 [Compound 24] , system PI3Kα H1047R (Homo sapiens, UniProt P42336, H1047R)?
Output: 6.30 to 6.60

Task: Please tell me: pIC50 of Cc1cc([C@@H](C)Nc2ccc(Cl)nc2C(=O)NS(C)(=O)=O)c2nc(OCc3cccnc3)n(C)c(=O)c2c1 [Compound 56] , system PI3Kα H1047R (Homo sapiens, UniProt P42336, H1047R)?
Output: ≤ 6.00

Task: Please tell me: pIC50 of Cc1cc([C@@H](C)Nc2ccc(Cl)nc2C(=O)NS(C)(=O)=O)c2nc(NC34CC(C3)C4)n(C)c(=O)c2c1 [Compound 6] , system PI3Kα H1047R (Homo sapiens, UniProt P42336, H1047R)?
Output: ≤ 6.00

Task: Please tell me: pIC50 of Cc1cc([C@@H](C)Nc2cn(C)nc2C(=O)NS(C)(=O)=O)c2nc(N3Cc4ccc(F)cc4C3)n(C)c(=O)c2c1 (single isomer, unassigned) [Compound 106] , system PI3Kα H1047R (Homo sapiens, UniProt P42336, H1047R)?
Output: ≤ 6.00
